target.of.assay: UniProtKB P08173
Sequence (P08173 whole entry, the tested form may be a part): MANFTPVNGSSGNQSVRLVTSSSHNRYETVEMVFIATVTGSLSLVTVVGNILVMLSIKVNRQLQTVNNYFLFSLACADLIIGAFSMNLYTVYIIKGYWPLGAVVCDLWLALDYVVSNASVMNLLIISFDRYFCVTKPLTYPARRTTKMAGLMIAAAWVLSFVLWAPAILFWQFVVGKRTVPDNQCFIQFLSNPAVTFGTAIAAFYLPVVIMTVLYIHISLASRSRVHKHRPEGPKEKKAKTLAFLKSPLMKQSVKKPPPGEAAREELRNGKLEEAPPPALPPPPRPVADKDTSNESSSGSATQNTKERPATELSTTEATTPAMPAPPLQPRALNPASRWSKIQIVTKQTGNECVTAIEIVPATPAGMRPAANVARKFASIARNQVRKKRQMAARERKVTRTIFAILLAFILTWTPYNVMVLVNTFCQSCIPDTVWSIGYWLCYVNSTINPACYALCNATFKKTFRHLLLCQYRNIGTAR
measurement.description: Positive allosteric modulation of Gqi5-fused human M4 AChR assessed as increase in acetylcholine-induced calcium mobilization relative to acetylcholine alone
Assay type: functional
Note to self: use T only for Emax readings below 70%; a reading exactly at 70% still gets F.

# compound, assigned.class
data = [
    ("Cc1nnc2sc3c(NCC4CCCO4)nn(C)c3c2c1C (centres undefined)", "F"),
    ("Cc1cc(C)c2c(n1)sc1c(NCC3CC3)n[nH]c12", "T"),
    ("Cc1nnc2sc3c(NCc4ccco4)nn(C)c3c2c1C", "F"),
]

Exercise: Just wondering, is Emax of COc1ccc(CNC(=O)c2cc3c(C)c(C)nnc3s2)cc1F below 70%?
Solution: T

Exercise: API: query returns whether the compound falls strictly under 70% in Emax. Query: Cc1nc2sc3c(NCC4CC4)nn(C)c3c2c(C)c1Cl
Solution: T

Exercise: Below 70% on Emax? Entry CCc1c(C(=O)NCc2ccc(S(C)(=O)=O)cc2)sc2nc(C)cc(C)c12
Solution: T

Exercise: Problem: For the compound COc1ccc(CNc2n[nH]c3c2sc2nc(C)cc(C)c23)cc1 , is Emax under 70%?
Solution: T

Exercise: Does the reported Emax of the following compound sit strictly below 70%? COc1ccc(CNC(=O)c2sc3nnc(C)c(C)c3c2C2CC2)cc1F
Solution: T

Exercise: Please indicate whether the reported Emax of Cc1cc(C)c2c(C)c(C(=O)NCc3ccc(OC(F)(F)F)cc3)sc2n1 is strictly below 70%.
Solution: T

Exercise: Please state whether Emax is below 70% for COc1ccc(CNC(=O)c2sc3nnc(C)c(C)c3c2C)cc1F
Solution: T

Exercise: Hello, is Emax of the following compound strictly smaller than 70%? Cc1cc(C)c2c(C)c(C(=O)NCc3ccc4c(c3)OCCO4)sc2n1
Solution: T

Exercise: Confirm or reject: Emax of Cc1nc2sc3c(NCc4ccco4)nn(C)c3c2c(C)c1Cl lies strictly below 70%
Solution: T

Exercise: Threshold test, Emax < 70%: COc1ccc(CNC(=O)c2sc3nnc(C)c(C)c3c2N)cc1F
Solution: F

Exercise: Does the reported Emax of Cc1cc(C)c2c(n1)sc1c(NCc3ccc(F)cc3)n[nH]c12 stay below 70%?
Solution: T

Exercise: Dear reviewer, please state whether Cc1cc(C)c2c(n1)sc1c(NCc3ccco3)n[nH]c12 has Emax strictly beneath 70%.
Solution: F

Exercise: For COc1ccc(CNC(=O)c2sc3nc(C)cc(C)c3c2C)cc1 , is the recorded Emax below the cut-off of 70%?
Solution: T

Exercise: Check if Emax falls below 70% for Cc1nc2sc3c(NCc4ccc(F)cc4)nn(C)c3c2c(C)c1Cl .
Solution: T

Exercise: Quick check: Emax of Cc1cc(C)c2c(n1)sc1c(NCc3ccccc3)n[nH]c12 under 70%?
Solution: T

Exercise: A record lists COc1ccc(CNc2nn(C)c3c2sc2nnc(C)c(C)c23)cc1 . Is its Emax below 70%?
Solution: F
